run.description: yeast display, Sf9 membrane polyspecificity reagent, FACS + sequencing; frameworks hold sequencing errors
recorded.endpoint: polyreactivity (PSR sort gate)

Below, 4 sequences whose answers are already recorded.
INSERT INTO measurements (ordered_residues, result) VALUES
  ('QVQLVESGGGLVQAGGSLRLSCAASGITFWYYAMGWYRQAPGKERELVAAISWDGGSTYYADSVKGRFTISRDNAKNTVYLQMNSLKPEDTAVYYCAAEQYLYTWARHRANFDYWGQGTQVTVSS', 'high polyreactivity'),
  ('QVQLVESGGGLGQAGGSLRLSCAASGIIFWLYAMGWYRQAPGKDRELVAAITRSDGDTYYADSVKGRFTISRDNAKNTVYLQMNSLKPEDTAVYYCAARFTDYIHIWPFLLYNEVYYWGQGTQVTVSS', 'low polyreactivity'),
  ('QVQLVESGGGLVQAGGMRRLSCAASGRTFGQYVMGWSRQAPGKERELVAAISRRGGSTYYADSVKGRFTISRDNAKNTVYLQMNSLKPEDTAVYYCAPAGTYTGGEGYLGQGTQVTVSS', 'high polyreactivity'),
  ('QVQLVESGGGLVQAGGSLRLSCAASGSIFYYNAMGWFRQAGGKERELVAALSWSGGSTYYADSVKGRYTISRDNATNTVSLQMNSLKPEETAVYYCNAVGWYTYFSGSRKYNSWGQGTQVTVSS', 'low polyreactivity');

For QVQLQESGGGLVQAGGSLRLSCAASGTISDSGLMGWYRQAPVKERELVAGIRSGGITNYADSVKGRFTISRDNAKNTVYLQMNSLKPEDTAVYWGQGTQVTVSS , what is its reported polyreactivity (PSR sort gate)?
low polyreactivity

----------
run.description: yeast display, Sf9 membrane polyspecificity reagent, FACS + sequencing; frameworks hold sequencing errors
recorded.endpoint: polyreactivity (PSR sort gate)

INSERT INTO measurements (ordered_residues, result) VALUES
  ('QVQLVESGGGLVQAGGSLRLSCAASGRTFYYYAMGWYRQAPGKERELVAVISWDDGSTYYADSVKGRFTISRDNAKNTVYLQMNSLKPEVTAVYYCAAYDYLDYADDYWGQGTQVTVSS', 'low polyreactivity'),
  ('QVQLVESGGGLVQAGGSLRISCAASGITFLEYAMGWYRQAPGKERELVATINSGGSTNYADSVKGRFTISRDNAKNTVYLQMNSLKQEDNAVYYCSADYGSDYTKGDYWGQGTQVTVSS', 'low polyreactivity');

----------
run.description: yeast display, Sf9 membrane polyspecificity reagent, FACS + sequencing; frameworks hold sequencing errors
recorded.endpoint: polyreactivity (PSR sort gate)

Below, 10 sequences whose answers are already recorded.
INSERT INTO assay_data (ordered_residues, recorded_endpoint, result) VALUES
  ('QVQLVESGGGLVQAGGSLRLSCAASGRIFGIYAMGWYRQAPGKERELVASITDGTITNYADSVKGRFTISRDNAKNTVYLQMNSLIPEDTAVYYCAAGTQAHAYVVRPIEMDYWGQGTQVTVSS', 'polyreactivity (PSR sort gate)', 'low polyreactivity'),
  ('QVQLVESGGGLVQAGGSLRLICAASGSTFYSNAMGWYRQAPGKERELVAAINYSGGGTYYADSVKGRFTISRDNAKNTVYLQMNSLKPEDTAVYYCAADGSYVHWEYGYWGQGTQVTVSS', 'polyreactivity (PSR sort gate)', 'low polyreactivity'),
  ('QVQLVESGGGLVQAGGSLRLSCAASGLTFRPYTMGWYRQAPAKERELVAAISARGGRTYYADSVKGRFTISRDNAKNTVYLQMNSLKPEDTAVYYCATLETTGVNYWGQGTQVTVSS', 'polyreactivity (PSR sort gate)', 'high polyreactivity'),
  ('QVQLVESGGGLVQAGGSLRLSCAASGGTFENYAMGWYRQPPGKERELVAAISSGGSTNYADSVKGRFTISRDNAKNTVYLQMNSLKQEDTAVYYCARYRVWGSTGHKLFHDDYWGQGTQVTVSS', 'polyreactivity (PSR sort gate)', 'low polyreactivity'),
  ('QVQLQESGGGMVQAGGSLRLSCAASGYISWADYMVWYRQAPGKERELVAGIGYGSTTYYADSVKGRFTISRANAKNTAYLQMNSLKPEDTAVYYCAVGWYRDTAYKYWGQGTQVTVSS', 'polyreactivity (PSR sort gate)', 'low polyreactivity'),
  ('QVQLVESGGGLVQAGGSLRLSCAASGSIFDVNTMGWYRQAPGKERELVAAISRGGSTNYADSVKGRFTISRDNAKNTVYLQMNSLKPEDTAVYYCNKRYQNQYDYWGQGTQVTVSS', 'polyreactivity (PSR sort gate)', 'low polyreactivity'),
  ('QVQLVDSGGGLVQAGGILRLSCAASGFILSDNAMGWYRQGPGKERELVAAINSGGSTYYADSVKGRFTISRDNAMNTVYLQMNSLKPEDTAVYYCAADFSTWLRAYDYWGQGTQVTVSS', 'polyreactivity (PSR sort gate)', 'low polyreactivity'),
  ('QVQLVESGGGLVQAGVSLRLSCAASGSIFDVYAMGWYRQAPGKERELVATISYGDSSTYYADSVKGRFTISRDNAKNTVYLQMNSLKPEDTAVYYCAADYLTAPRWRQWGEMDYWGQGTQVTVSS', 'polyreactivity (PSR sort gate)', 'low polyreactivity'),
  ('QVQLVESAGGLVQAGASLRLSCAPSGSIFRINAMGWYRQAPGKERELVAAISTRSGRTYYADSVKGRFTISRDNAKNTVYLQMYSLNPEDTAVYYCARYRTQASGYGGYDYWGQGTQATVSS', 'polyreactivity (PSR sort gate)', 'high polyreactivity'),
  ('QVQLVESGGGLVQAGVSLRLSCAASGFILDYNTMGWYRQAPGKERELVAAISSSGDTTYYADSVKGRFTISRDNAKNTVYLQMNSLKREDTAVYYCAREYGVGYEYWGLGTQVTVSS', 'polyreactivity (PSR sort gate)', 'low polyreactivity');

For QVQLVESGGGLVQAGGSLRLSCAASGSILSYYAMGWYRLAPGKEREFVAAISSGGGTYYADSVKGRFTISRDNAKNTVYLQMNSLKPEDTAVYYCNAVHASSIQFEYWGQGTKVTVSS , what is its reported polyreactivity (PSR sort gate)?
low polyreactivity

----------
run.description: yeast display, Sf9 membrane polyspecificity reagent, FACS + sequencing; frameworks hold sequencing errors
recorded.endpoint: polyreactivity (PSR sort gate)

INSERT INTO results (ordered_residues, recorded_endpoint, result) VALUES
  ('QVQLVESVGGLVQAGGSLRLSCAASGLIFSRYAMGWYRQAPGKERELVAAITSGTSTYYADSVKGRFTISRDNAKNTVYLQMNSLKPEDTAVYYCARRYRGGYKYDYWGQGTQVTVSS', 'polyreactivity (PSR sort gate)', 'high polyreactivity'),
  ('QVQLVESGGGLVQAGGSLRLSCAASGSTLGGNAMGWYRQEPGKERELGAAITSSAGSTYYADSVKGRYTISRDNAKNTVYLQMNSLQPEDTAVYYCAADYSRDEYDYWGQGTEVTVSS', 'polyreactivity (PSR sort gate)', 'low polyreactivity'),
  ('QVQLVESGGGLVQAGGSLRLSCAASGFIFTFYAMGWYRQAPGKEREFVASIDWGDGSTYYADSVKGRFTISRDNAKNTVYLQMNSLKPEDSAVYYCAHDYDGYVWDTEYDYWGQGTQVTVSS', 'polyreactivity (PSR sort gate)', 'low polyreactivity'),
  ('QVQLVESGGGLVQAGGSLRLSCAASGFIFRDNAMGWYRPAPGKERELVAAISKSGGRTYYADSVKGRFTISRDNAKNTVYLQMNSLKPEDTAVYYCAKASRYWSLYYWGQGTQVTVSS', 'polyreactivity (PSR sort gate)', 'high polyreactivity');

# ---- query sequence ----
For QVQLVETGGGLVQAGGSLRLSCDASGRIIRWYALGWYRQAPGKERELDAAITRSGSTFYADSVKWRFTISRDNAKNTVYLQMNSLKREDTADYYCNTCRWLYDTRYQFDEFDYWGQGTQVTVSS , what is its reported polyreactivity (PSR sort gate)?
high polyreactivity

----------
run.description: yeast display, Sf9 membrane polyspecificity reagent, FACS + sequencing; frameworks hold sequencing errors
recorded.endpoint: polyreactivity (PSR sort gate)

Below, 8 sequences whose answers are already recorded.
INSERT INTO results (ordered_residues, recorded_endpoint, result) VALUES
  ('QVQLVESGGGLVQAGGSLRLSCAASGRTFAGYAMGWYRHAPGKETELVAAITTSGGRTYYADSVKGRFTISRDYAKNTVYLQMNSLKPEDTAVYYCNVASKGRYARYAAEYGYWGQGTQVTVSS', 'polyreactivity (PSR sort gate)', 'high polyreactivity'),
  ('QVKLVESGGGLVQAGGSLSLSCAASARIFSAYAMGWYRQAPGKEMELVAAISYSGGSTYYADSVKGRFTIARDNAKNTVYLQMNSLKPEDTADYYCAADTVYGYQWGQGTQVTVSS', 'polyreactivity (PSR sort gate)', 'low polyreactivity'),
  ('QVQLVESGGGLVQAGGSLRLSCAASGSTFSYYTMGWYRQAPGKERELVADIDSGDDTYYADSVKGRFTISRDNAKNTVYLQMNSLKPEDTAVYYCATEFNRPHFTVRVRFKYYYWGQGTQVTVSS', 'polyreactivity (PSR sort gate)', 'low polyreactivity'),
  ('QVQLVESGGGLVQAGGSLRLSCAASGGIFYFNAMGWYRQAPWKERELVAAIDQRGDTTYYADTVKGRFTISRDNAKNTVYLQMNSLKPEDTAVYYCAAEIYFLGDDYWGQGTQFTVSS', 'polyreactivity (PSR sort gate)', 'high polyreactivity'),
  ('QVQLVESGGGLVQAGGSLRLSCAASGSTFTYYAMGWSRQEPGIEREFVAAISRRGGSTYYADSVKGRFTISRDNAMNTVYLQMKSLKQEDTPVYYCNVVIYSYGINGRYDYWGQGTQDTVSS', 'polyreactivity (PSR sort gate)', 'high polyreactivity'),
  ('QVQRVESGGGLVQAGGSLRLSCAASGSTLRYYAMGWYRQAPGKERELVAGIRYRGGSTSYADSVKGRFTISRDNAKNTVYLQMNSLKPEDTAVYYCATGIYRARTSSFRMGYWGQGTQVTVSS', 'polyreactivity (PSR sort gate)', 'low polyreactivity'),
  ('QVQLVESGGGLVQAGGSLRLSCAASGYTFVYYAMGWYRQAPGKERELVAAITGNSGSTYADSVKGRFTISRDNAKNTVYLQMNSLNPEDTAVYYCAADQTGQDWYYVEFDYWGQGTQVTVSS', 'polyreactivity (PSR sort gate)', 'low polyreactivity'),
  ('QVQLVDSGGGLVQAGGSLRLSCAASGSIIFYNAMGWYRQAPGKERELVAAISRGGNTNYADSVKGRFTISRDNAKNNFYLQMNSLKSEDTAVYYCNADLVQYWGRRRWYDYWGQGTQVTVSS', 'polyreactivity (PSR sort gate)', 'low polyreactivity');

For QVQLLERGGGLVQAGGSLRLSCMASGSILVDRMSWYRQAPGKEHELVATIYDGGITYYADSMTGRFTISRDNAKNTVYLQMIRQRPEDTAVYYCGASFERYRYHVYCGQGTQVTVSS , what is its reported polyreactivity (PSR sort gate)?
low polyreactivity

Entry QVQLVESGGGLVQAGGSLRLSCAASGIIFRGNAMGWYRQAPGKERELVAAISRSGRTNYADSVKGRFTISRDNAKNTVYLQMNSLKPEDTAVYYCAVDKRYGRVVGRDYDYWGQGTQVTVSS please
high polyreactivity

Entry QVQLLESGGGLVQAGGSLRLSCAPSGRTFARYDMAWYTQAPGKERELVAVISRTGSTYYADSVKGSFTISRDNEKITVYLLMNSLKPEDTAVYYCATVYVYWGQGTQVTVSS please
high polyreactivity

Entry QVQLVESGGGLVQAGGSLRLSCAASVSTLSDNAMGWYRQAPGKERELVASISWSGGTYYADSVKGRFTISRDNAKNTVYLQMNSLKPEDTAVYYCAAYIYYNYSRQYWYDYWGQGTQVTVSS please
low polyreactivity

Entry HVQHVDSGAGLVQAGGSLRLSCAASGRTFVGYAMGWYRQAPGKEREFVADITYDSGSTYYADSVKGRFTISRDNAKNTVYLQMNSLKPEDTAVYYCNAKYYYWWYDVDYWGQGTQVTVSS please
high polyreactivity

Entry QVQLVESGGGLVQAGGSLRLSCAASGSIFSWNARGCYRQAPGKERELVAGITWSGGGTSYADSVKGRFTISRDNAKNTVYLQMNSLKPEDTAVYYCAKEWIFDFNYWGQGTQVTVSS please
low polyreactivity

Entry QVQLVESGGGLVQAGGSLRLSCAASGRTFSGYAMGWYRQAPGKARELVAGITWNGGRTYYADSVKGRFTISRDNAKNTVYLQMNSLKPEDTAVYYCNKLGAVYPKYGYWGQGTQVTVSS please
high polyreactivity

Entry QVQLVESGGGLVQAGGSLRLSCAASGSTFVDYAMGWYRQAPGKERELVAAISFSDGSTYYADSVKGRFTISRDNAKNTVYLQMNSLKPEDTAVYYCAKDAYWGYRWYTYDYWGQGTQVTVSS please
low polyreactivity

Entry QVQLVESGGGLVQAGGSLRLSCAASGSIFYNYAMGWYRQAPGKERQLVATITRSDGSTYYADSVKGRFTISRDNAKNTVYLQMNSLKPEDTAVYYCNADSLWDSAFGYDYWGQGTQVTVSS please
low polyreactivity

Entry QVQLVESGGGLVQAGGSLRLICAASGSIFRYYTMGWYRQGPGKERELVARISSSGSTNYADSVKGRFTISRDNAKNTVYLQMNSLKPEDTEVYYCAARAFSWAGYYYWGQGTQVTLSS please
low polyreactivity

Entry QVQLVESGGGLVQAGGSLRLSCAASGRIFQYYDMGWYRQAPGKERELVATITSGGSTNYADSVKGRFTISRDNAKNTVYLQMNSLKPEDTAVYYCAALAYTASDYQPYDATEYNYWGQGTQVTVSS please
low polyreactivity

Entry QVQLVESGGGLVQAGGSLRISCAASGSTVHYMAWYRQAPGKEREMVAGISWSGGSTYYADSVKGRFTISRDNAKNTVYLQMNSLKPEETAVYYCAADHFNYTSGRDYWGQGTQVTVSS please
low polyreactivity

Entry QVHLVESGGGLVQAGGSLRLSCAASGRIFRGYAMGWYRQAPGKERELVATISWNGGSTYYADSVKGRFTISRDNAKNTVYLQMNSLKPEDTAVYYCNKRYWGGRYGYDYWGQGTQVTVSS please
high polyreactivity
